Tested on: K4 kissing-loop RNA reporter;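 note: bound reporter read as fluorescence of individual clusters on recovered sequencing chips by microscopy, with normalized cluster intensities fitted with a binding model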
Assay: apparent KD of K4 kissing-loop reporter; higher = weaker reporter binding
Settings: Eterna round: R107; input ligand: none
Below is a list of entries, each paired with its recorded apparent KD of K4 kissing-loop reporter value.
Just the number please, in nM, no unit attached.

Check out these entries, answers already filled in.
>>> readout_value("GGCGGCCGCGCGUAAGCGCGGCCGGCCGAUACCAGCGCGACGGCGCGCCCUUGGCAGCGGCGCCGAGUGAUGUUCGGCCUGCCGG [#2 Same State - Theophylline A Attempt #17 (HarryS)]")
441
>>> readout_value("GGGAAGAAGGCGGCCGCCACUGCAGAAGAGACAGAGAGAGAAGAAGAGGAGUGAUGUUCCAAGAACAGGACCGGGCCAAGAAGGG [whbob_SS_Tryp_B_t28]")
102
>>> readout_value("AACUAUUAAUGAAUUACAUUUUAUUUUUCUCGAGGACCGGUACGGCCGCCACUCGUACUAUAGUGAUGUUAUAGAUAAGUCCUAA [JR_ExcTryptoA_Sub021]")
134

**Query** For the sequence GGAUAGGACAGAGGAUAUCUCUAAAGAGGCAAGAAAACUUGUCUCAGAGAUGACUCAGUGAUGUUGAGAGAAGGCUGUCCUAUCG [FmnBX 7 - #SwitchBubble #StaticStem] , report apparent KD of K4 kissing-loop reporter.
**Result** 174

**Query** For the sequence UAACUGAAGUGAUGUUUCAGUUCGUCGGAUACCAGUGCCGAUCAUCACCCUUGGCAGCCGUAAUAUUACUUAACAAUGACAGGUU [theeternabot_exclusion_KL_Theo_A_7] , report apparent KD of K4 kissing-loop reporter.
**Result** 118

**Query** For the sequence CUUCGUAAAGGCCCAGUGAUGUUGGGCACUCGAGGACCGGUACGGCCGCCACUCGCUCCCUAAGUCGCGCGCGUGGGCCACCGCC [Xeteoredre] , report apparent KD of K4 kissing-loop reporter.
**Result** 99.4

**Query** For the sequence AAUAUAGUGAUGUUAUAUAAGGAAAGAAGGCGAGGACCGGUACGGCCGCCACUCGAAAGGUGAGAAGGUGGCGAAGAAGAAAGAA [ExTryptoA.B] , report apparent KD of K4 kissing-loop reporter.
**Result** 331

Reference source for all entries: the supplement of paper PMC9170038
